protocol_notes: yeast display, Sf9 membrane polyspecificity reagent, FACS + sequencing; frameworks hold sequencing errors
endpoint_name: polyreactivity (PSR sort gate)

Guide cases for polyreactivity (PSR sort gate), answers given:
QVHLVESGGGLVQAGGSLRLSCAASGRNFYTNVMGWSRQAPGKERELVAAISSGGGTTYYADSVKGRFTISRDNAKNTVYLQMNSLKPEDTAVYYCAADALSDEYDYWGQGTEVTVSS	low polyreactivity
QVQLVESGGGLVQAGGSLRLICAASGLIFGRYDMGWYRQAPGKERELVAAISGGTTNYADSVKGRFTISRDNAKNTVYLEMNSLKPEDTAVYYCNAGPSQPGGIFYEYDYWGQGTQVTVSS	low polyreactivity
QVQLVESGGGLVQAGGSLRLSCAASGSTIPSYAMGWYRQAPGKERELVASITYSDGTTRYADSVKGRFTISRDNAKNTVYLQMNSLKPEDTAVYYCAKYYYTSIVGYDSWGQGTQVTVSS	low polyreactivity
QVQLVKSGGGLVQAGGSLRLSCAASGSTFRYYVMGWYRQAPGKERELVATISRGGITKYADSVKGRFTSSRDNAKNTVYLQMHSLKPEDTAVYYCNTRGSRQGKFDYWGQGTQVTVSS	high polyreactivity

Given item QVQLVESGGGLVQAGGSLRLSCAASGFIFYRYAMGWYRQAPGKERELVAAITGGGSTYYADSVKGRFTISRDNAKNTVYLQMNSLKPEDTAVYYCNAVTYGWTAYDKGKRYDYWGQGTQVTVSS , the value recorded as its polyreactivity (PSR sort gate) is high polyreactivity

----------
protocol_notes: yeast display, Sf9 membrane polyspecificity reagent, FACS + sequencing; frameworks hold sequencing errors
endpoint_name: polyreactivity (PSR sort gate)

# annotated cases, reported polyreactivity (PSR sort gate) shown
QVQLVESGGGLVQAGGSLRLSCAASGLIFYRYAMGWYRQAPGKERELVAVITRSGGNTNYADSVKGRFTISRDNAKNTVYLQMNSLKPEDTAVYYCATRGIWKKVPYYYWGQGTQVTVSS	high polyreactivity
QVQLVESGGGLVEAGGSLRLSCAASGRTFQYYPMGWYRQAPGKERDFVAAITRTGARTYYADSVKGRFTISRDNAKNTVYLQMYSLKPEDTAVYYCAISLTFYSWRDYGYWGQGSQVTVSS	high polyreactivity
QVQLVESGGGLVQAGGSLRLSCAASGSTSGSYGMGWYRQAPGKERELVAAIRWSGGRTYYADSVKGRFTISRDNAKNTVYLQMNSLKPEDTAVYYCAKYRYTVAGYNYWGQGTQVTVSS	high polyreactivity
QVQLVESGGGLVPAGGSLRLSCAASGRTFGYYAMGWYRPAPGKERELVAAITSNGGSTYYADSVKGRFTISRDNAKNTVYLQMNSLKPEDTAVYYCNTGRRNRLYDYDYWGQGTQVTVSS	high polyreactivity
QVQLVESGGSLVQAGGSLRLSCAATGRIFGPYAMGWYRQAPGKERELVATITWSGVSTYYADSVKGRFTLSRDNAKNTVYLQMNSLKPEDTAVYFCAADPQVIYRGFYQRDYWGQGTQVTVSS	low polyreactivity

// field: polyreactivity (PSR sort gate); key: KDQLVESGGGLVQAGGSLRLSGAASGRTFASNDMVWYRQAPGKERELVADINNGARTYYADSVKGRFTISRDNAKNTVYLQMNSLKPEDSAVYYCNARPWYWWECRYDYWGQGTQVTVSS ; value = high polyreactivity

Entry QVQLVESGGGLVQAGGSLRLSCAASGFTFRRYAMGWYRQAPGKEREFVAAITRSSGRTYYADSVKGRFTISRDNAKNTVYLQMNSLKPEDTAVYYCNRDTSIRHYNYWGQGTQVTVSS — recorded polyreactivity (PSR sort gate) = high polyreactivity

The reported polyreactivity (PSR sort gate) of the sequence QVQLVESGGGLVQAGGSLRLSCAASGRTFFPYAMGWYRQAPGKEREFVAAITKSDYSTYYADSVKGRFTISRDNAKNTVYLQKNSLKPEDNAVYYCNAGDTQIRFYYWGQGTQVTVSS was low polyreactivity

Input QVQLVESGGGLVQAGGSLRLSCAASGSIFPWYAMGWYRQAPGKERELVAAITISGGSTHYADTVKGRFTISRDNAKYTVYLQMNSLKPEDTAVYYCATPRYPSYDYWGQGTQVTVSS . Output polyreactivity (PSR sort gate): low polyreactivity

The reported value for QVQLVESGGGLVQAGGSLRLSCAASGFIFEYYAMGGYRQAPGKERELVAAISGGGRTYYADSVKGRFTISRDNAKNTVYLQMNSLKPEDTAVYYCAAGYAYRGYWVNRITRDGYWGQGTQVTVSS in terms of polyreactivity (PSR sort gate) is high polyreactivity

Query QVQLVESGGGLVQAGGSLRLSCAASGRIFGYYVMGWYRQAPGKDRELVATISRVGTTNYADSVKGRFTISRDNAKNTVYLQMNSLKPEDTAVYYCNADYTGHRGGNDYWGQGTQVTVSS yields polyreactivity (PSR sort gate) of low polyreactivity

Origin of values: the nanobody polyreactivity screen of Harvey et al. (2022)
